# tgt: Melanin-concentrating hormone receptor 1 (Homo sapiens)
# assay-procedure: antagonist activity at MCH receptor 1 – cell-based, fluorescence, set 4, counter-screen for GPR7 antagonist project, dose response (AID 588568)
# test-context: MCHR1-expressing cells, fluorescence antagonist assay; run 1
Activity calls are given as the source filed them. The rule behind the calls is not given here.
Respond with a class label; see active, inactive

Please review the entries below; each comes with its answer.
>  <compound>
Cc1cccc(Cn2ncc(Oc3ccc(CO)cc3)c(Cl)c2=O)c1

>  <tgt>
Melanin-concentrating hormone receptor 1 (Homo sapiens)

>  <answer-label>
active

$$$$
>  <compound>
Cc1cc(C)cc(-n2nc(C#N)c(=O)[nH]c2=O)c1

>  <tgt>
Melanin-concentrating hormone receptor 1 (Homo sapiens)

>  <answer-label>
inactive

$$$$
>  <compound>
COc1ccc(Oc2c(Cl)cnn(C(C(=O)OC(C)C)c3ccccc3Cl)c2=O)cc1 (configuration not stated)

>  <tgt>
Melanin-concentrating hormone receptor 1 (Homo sapiens)

>  <answer-label>
inactive

$$$$
>  <compound>
COc1ccc(Oc2c(OC)nn(-c3cccc(C)c3)c(=O)c2Oc2ccc(OC)cc2)cc1

>  <tgt>
Melanin-concentrating hormone receptor 1 (Homo sapiens)

>  <answer-label>
inactive

$$$$
>  <compound>
COc1ccc(Oc2c(Cl)cnn(Cc3cc(Cl)ccc3Cl)c2=O)cc1

>  <tgt>
Melanin-concentrating hormone receptor 1 (Homo sapiens)

>  <answer-label>
active

$$$$
>  <compound>
COc1cccc(Oc2c(Cl)cnn(Cc3cccc4ccccc34)c2=O)c1

>  <tgt>
Melanin-concentrating hormone receptor 1 (Homo sapiens)

>  <answer-label>
active

$$$$
>  <compound>
O=c1c(Oc2ccc(Oc3ccccc3)cc2)c(Cl)cnn1Cc1cccc2ccccc12

>  <tgt>
Melanin-concentrating hormone receptor 1 (Homo sapiens)

>  <answer-label>
inactive

$$$$
>  <compound>
COc1ccc(Oc2c(Cl)cnn(Cc3ccc(C)c(C)c3)c2=O)cc1

>  <tgt>
Melanin-concentrating hormone receptor 1 (Homo sapiens)

>  <answer-label>
active

$$$$

Kindly provide the recorded test outcome for the following compound: COc1ccc(Oc2cnn(Cc3cccc4ccccc34)c(=O)c2Br)cc1 inactive

Kindly provide the recorded test outcome for the following compound: COc1ccc(Oc2c(Cl)c(Br)nn(Cc3ccccc3C)c2=O)cc1 active

Kindly provide the recorded test outcome for the following compound: Cc1cc(C)cc(-n2ncc(Cl)c(Oc3ccc(Oc4ccccc4)cc3)c2=O)c1 active

Kindly provide the recorded test outcome for the following compound: CCCCCc1ccc(-n2ncc(Cl)c(Oc3ccc(OC)cc3)c2=O)cc1 active
